Tested on: HCT-116
Assay protocol: Cytotoxicity against human HCT-116 cells assessed as reduction in cell viability incubated for 48 hrs by resazurin reagent based fluorescence assay
Type: functional
Details: HCT-116, 48 h
Metric: IC50

BrCCCCCOc1nc(/C=C/c2ccccc2)cc(/C=C/c2ccccc2)n1    > 20 µM
COc1ccc(/C=C/c2cc(/C=C/c3ccc(OC)c(OC)c3)nc(OCCCCBr)n2)cc1OC    > 20 µM

Ask: Name the recorded IC50 of the compound listed here: `BrCCCCOc1nc(/C=C/c2ccccc2)cc(/C=C/c2ccccc2)n1`
Result: > 20 µM
